target: LCK (human) (UniProt P06239); test: radiometric filter-binding kinase assay, Kinase HotSpot; conditions: compound 0.5 µM; ATP 10 µM
Sequence (P06239 whole entry, looked up): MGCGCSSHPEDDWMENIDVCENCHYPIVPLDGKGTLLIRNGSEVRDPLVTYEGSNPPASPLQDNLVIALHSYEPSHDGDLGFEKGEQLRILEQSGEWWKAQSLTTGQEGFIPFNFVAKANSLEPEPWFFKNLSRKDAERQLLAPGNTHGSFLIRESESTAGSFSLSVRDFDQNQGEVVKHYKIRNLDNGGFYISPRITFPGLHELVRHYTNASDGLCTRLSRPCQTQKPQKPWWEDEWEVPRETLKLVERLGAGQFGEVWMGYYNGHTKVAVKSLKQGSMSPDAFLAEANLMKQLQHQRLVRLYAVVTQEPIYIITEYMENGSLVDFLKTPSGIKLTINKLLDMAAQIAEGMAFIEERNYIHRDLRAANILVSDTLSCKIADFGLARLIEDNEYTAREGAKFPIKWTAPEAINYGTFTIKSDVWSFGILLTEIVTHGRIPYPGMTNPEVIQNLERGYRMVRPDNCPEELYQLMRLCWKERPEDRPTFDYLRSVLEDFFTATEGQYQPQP
experimental-endpoint: residual activity (%)
Write the number in % without appending the unit.

Previously resolved entries follow.
[[record]]
cpd_smiles = "COc1ccc(CNC(=O)Nc2ncc([N+](=O)[O-])s2)cc1"
experimental_endpoint = "residual activity"
measurement = 101

[[record]]
cpd_smiles = "CCn1cnc2c(Nc3cccc(Cl)c3)nc(N[C@@H]3CCCC[C@@H]3N)nc21"
experimental_endpoint = "residual activity"
measurement = 89.5


Next molecule, please.
Per the records, this molecule ( O=C1Nc2ccccc2/C1=C1\Nc2ccccc2\C1=N/O ) has residual activity equal to 77.1

----------
target: CDK2 CCNA2 (human) (UniProt P24941+P20248); assay: radiometric filter-binding kinase assay, Kinase HotSpot; settings: compound 0.5 µM; ATP 10 µM
Sequence (P20248 whole entry, looked up, other chains not shown): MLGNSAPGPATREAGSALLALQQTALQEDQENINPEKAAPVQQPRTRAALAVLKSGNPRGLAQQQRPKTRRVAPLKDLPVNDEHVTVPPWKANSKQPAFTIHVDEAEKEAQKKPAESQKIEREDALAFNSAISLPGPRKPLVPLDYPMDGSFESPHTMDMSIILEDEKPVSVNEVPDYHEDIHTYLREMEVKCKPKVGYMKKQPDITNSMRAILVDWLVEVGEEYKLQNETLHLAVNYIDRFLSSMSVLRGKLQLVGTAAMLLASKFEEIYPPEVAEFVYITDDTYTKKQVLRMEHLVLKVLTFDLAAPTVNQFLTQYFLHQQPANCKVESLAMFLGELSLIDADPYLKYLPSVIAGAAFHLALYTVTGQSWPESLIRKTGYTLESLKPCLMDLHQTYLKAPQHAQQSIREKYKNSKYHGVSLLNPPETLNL
Quick reference: residual activity of the listed items.
Quick note: give the figure in %, leave out the unit.

[[record]]
compound = "COc1cc2ncnc(N3CCN(C(=O)Nc4ccc(Oc5ccccc5)cc4)CC3)c2cc1OC"
experimental_endpoint = "residual activity"
measurement = 93.1


// recorded residual activity for Cn1cnc2cc3c(Nc4cccc(Br)c4)ncnc3cc21 : 90.1

Lookup result for COc1cc2ncc(-c3ccccc3)nc2cc1OC ; measured residual activity: 92.9

Notebook: COc1ccc(CNC(=O)Nc2ncc([N+](=O)[O-])s2)cc1 , residual activity read as 93.3

For O=C(O)/C=C/c1cc(Br)c(Br)c(Br)c1Br the compound record lists residual activity as 85.6

Item: CCn1cnc2c(Nc3cccc(Cl)c3)nc(N[C@@H]3CCCC[C@@H]3N)nc21 | residual activity: 23.6

----------
biological target: PRKCA (human) (UniProt P17252); test: radiometric filter-binding kinase assay, Kinase HotSpot; settings: compound 0.5 µM; ATP 10 µM
experimental-endpoint: residual activity (%)
Value expressed in %; do not type the unit.

As a guide, the following entries are already answered.
[[record]]
cpd_smiles = "CN(C)C[C@H]1CCn2c(c(C3=C(c4cn(C)c5ccccc45)C(=O)NC3=O)c3ccccc32)C1"
experimental_endpoint = "residual activity"
units_of_measure = "%"
measurement = 2.58

[[record]]
cpd_smiles = "CCn1cnc2c(Nc3cccc(Cl)c3)nc(N[C@@H]3CCCC[C@@H]3N)nc21"
experimental_endpoint = "residual activity"
units_of_measure = "%"
measurement = 68.2

[[record]]
cpd_smiles = "Oc1ccc(Nc2nc(-c3ccc(Cl)cc3)cs2)cc1"
experimental_endpoint = "residual activity"
units_of_measure = "%"
measurement = 113


Proceeding to the next molecule to report its residual activity.
Entry under test: Cn1cnc2cc3c(Nc4cccc(Br)c4)ncnc3cc21 . Its residual activity was 79

----------
target: STK38 (human) (UniProt Q15208); experiment: radiometric filter-binding kinase assay, Kinase HotSpot; settings: compound 0.5 µM; ATP 10 µM
Sequence (Q15208 whole entry, looked up): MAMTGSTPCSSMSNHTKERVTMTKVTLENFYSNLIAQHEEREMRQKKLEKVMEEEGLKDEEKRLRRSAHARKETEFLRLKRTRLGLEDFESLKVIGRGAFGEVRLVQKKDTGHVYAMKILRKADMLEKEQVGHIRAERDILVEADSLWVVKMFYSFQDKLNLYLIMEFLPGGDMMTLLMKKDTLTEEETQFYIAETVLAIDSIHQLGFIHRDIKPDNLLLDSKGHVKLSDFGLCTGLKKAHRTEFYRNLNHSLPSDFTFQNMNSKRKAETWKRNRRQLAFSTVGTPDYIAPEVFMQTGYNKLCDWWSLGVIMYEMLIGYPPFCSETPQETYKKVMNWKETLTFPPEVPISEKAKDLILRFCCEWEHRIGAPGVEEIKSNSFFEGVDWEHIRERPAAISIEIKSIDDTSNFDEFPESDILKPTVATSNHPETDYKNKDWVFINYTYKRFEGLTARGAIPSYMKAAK
Below, each of the molecules is paired with its reported residual activity value.

[[record]]
cpd_smiles = "Nc1nccc(-c2c(-c3ccc(F)cc3)ncn2C2CCNCC2)n1"
tested_on = "STK38 (human) (UniProt Q15208)"
experimental_endpoint = "residual activity"
measurement = "99.8%"

[[record]]
cpd_smiles = "O=C1Cc2c([nH]c3ccc(Br)cc23)-c2ccccc2N1"
tested_on = "STK38 (human) (UniProt Q15208)"
experimental_endpoint = "residual activity"
measurement = "98.6%"

[[record]]
cpd_smiles = "CN([C@@H](Cc1ccc(OS(=O)(=O)c2cccc3cnccc23)cc1)C(=O)N1CCN(c2ccccc2)CC1)S(=O)(=O)c1cccc2cnccc12"
tested_on = "STK38 (human) (UniProt Q15208)"
experimental_endpoint = "residual activity"
measurement = "97.2%"


As a next step, examine the molecule that follows.
Quick note, residual activity for COc1cc2ncnc(N3CCN(C(=O)Nc4ccc(Oc5ccccc5)cc4)CC3)c2cc1OC landed at 96.9%
